assay: Effect on calcein accumulation in multidrug-resistant human 2780AD cells at 0.25 ug/ml relative to control; assay type: functional, A2780 ADR
# Activity per entry
observable: Activity (%)

{"smiles": "CC(=O)O[C@H]1C(=O)[C@]2(C)CC[C@H](O)[C@@](O)(CO)[C@H]2[C@H](OC(=O)c2ccccc2)[C@@H]2CC(=O)C(C)=C1C2(C)C", "observable": "Activity", "unit-annotation": "%", "value": 88}
{"smiles": "CC(=O)OC[C@]1(O)[C@@H](O)CC[C@@]2(C)[C@@H](OC(C)=O)[C@H](OC(C)=O)C3=C(C)C(=O)C[C@@H]([C@@H](O)[C@@H]21)C3(C)C", "observable": "Activity", "unit-annotation": "%", "value": 88}
{"smiles": "CC(=O)O[C@@H]1[C@@H]2CC(=O)C(C)=C([C@@H](OC(C)=O)[C@H](OC(C)=O)[C@]3(C)CC[C@H](O)[C@@](O)(CO)[C@@H]13)C2(C)C", "observable": "Activity", "unit-annotation": "%", "value": 79}

---

assay: Cytotoxicity againt human WI38 cells; type: cell-based; conditions: WI-38
# IC50 per entry

{"smiles": "CC1=C2[C@@H](O)[C@H](O)[C@]3(C)CC[C@H]4OC[C@@]4(O)[C@H]3[C@H](OC(=O)c3ccccc3)[C@H](CC1=O)C2(C)C", "result-qualifier": ">", "IC50 / µg/mL": 100}
{"smiles": "CC(=O)O[C@@H]1[C@@H]2C[C@@H](O)C(C)=C([C@@H](OC(C)=O)[C@H](OC(C)=O)[C@]3(C)CC[C@H]4OC[C@@]4(O)[C@@H]13)C2(C)C", "result-qualifier": "=", "IC50 / µg/mL": 76.2}
{"smiles": "CC(=O)O[C@H]1C(=O)[C@]2(C)CC[C@H]3OC[C@@]3(O)[C@H]2[C@H](OC(=O)c2ccccc2)[C@@H]2CC(=O)C(C)=C1C2(C)C", "result-qualifier": "=", "IC50 / µg/mL": 7.38}

---

experiment: Effect on calcein accumulation in multidrug-resistant human 2780AD cells at 2.5 ug/ml relative to control; type: functional, A2780 ADR
observable: Activity (%)

{"smiles": "CC(=O)O[C@H]1C(=O)[C@]2(C)CC[C@H](O)[C@@](O)(CO)[C@H]2[C@H](OC(=O)c2ccccc2)[C@@H]2CC(=O)C(C)=C1C2(C)C", "observable": "Activity", "unit-annotation": "%", "value": 114}
{"smiles": "CC(=O)O[C@@H]1[C@@H]2CC(=O)C(C)=C([C@@H](OC(C)=O)[C@H](OC(C)=O)[C@]3(C)CC[C@H](O)[C@@](O)(CO)[C@@H]13)C2(C)C", "observable": "Activity", "unit-annotation": "%", "value": 94}
{"smiles": "CC(=O)OC[C@]1(O)[C@@H](O)CC[C@@]2(C)[C@@H](OC(C)=O)[C@H](OC(C)=O)C3=C(C)C(=O)C[C@@H]([C@@H](OC(=O)/C=C/c4ccccc4)[C@@H]21)C3(C)C", "observable": "Activity", "unit-annotation": "%", "value": 116}
{"smiles": "CC1=C2[C@@H](O)[C@H](O)[C@]3(C)CC[C@H]4OC[C@@]4(O)[C@H]3[C@H](OC(=O)c3ccccc3)[C@H](CC1=O)C2(C)C", "observable": "Activity", "unit-annotation": "%", "value": 110}
